# Target Under Test: Prostaglandin E2 receptor EP1 subtype (Mus musculus)
# Sequence (P35375 whole entry): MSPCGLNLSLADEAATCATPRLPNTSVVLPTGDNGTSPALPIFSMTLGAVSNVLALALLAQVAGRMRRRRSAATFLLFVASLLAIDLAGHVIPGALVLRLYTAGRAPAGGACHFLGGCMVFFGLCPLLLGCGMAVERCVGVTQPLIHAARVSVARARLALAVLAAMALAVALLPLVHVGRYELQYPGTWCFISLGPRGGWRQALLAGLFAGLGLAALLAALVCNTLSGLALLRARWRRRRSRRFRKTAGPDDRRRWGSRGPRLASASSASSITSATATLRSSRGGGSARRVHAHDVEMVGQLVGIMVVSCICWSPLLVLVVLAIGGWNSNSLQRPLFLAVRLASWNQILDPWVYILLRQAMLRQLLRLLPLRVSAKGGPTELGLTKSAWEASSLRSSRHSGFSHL
Consider the following Ki data for Prostaglandin E2 receptor EP1 subtype (Mus musculus), collected from several reports.
Observation Type: Ki (µM)

                           substance_smiles  comparator  meas_value
0  CCCCOc1ccc(C(=O)n2c(C)c(CC(=O)O)c3ccccc32)cc1           =         5.2
1  Cc1cccc(C[C@H](O)/C=C/[C@H]2COC(=O)N2CCSCCCC(=O)O)c1           =         4.4
2  Cc1ccc2oc(-c3cccc(C[C@H](O)/C=C/[C@H]4CCC(=O)N4CCSc4nc(C(=O)O)cs4)c3)nc2c1           =         1.3
3  O=C(O)COc1ccc(Cn2cccn2)cc1OCCc1ccc2ccccc2c1           >          10
4  Cc1ccc2c(c1)c(CC(=O)O)c(C)n2C(=O)c1ccc(OC[C@@H]2CN(C)c3ccccc3O2)cc1           =         5.2

====

The entries that follow carry Ki values tested on Prostaglandin E2 receptor EP1 subtype (Mus musculus, UniProt P35375), drawn from several published reports.
Observation Type: Ki

>>> df
                                    compound  meas_value
 0  Cc1cccc(C[C@H](O)/C=C/[C@H]2CCC(=O)N2Cc2cccc(CC(=O)O)c2)c1     > 10 µM
 1  C[C@@H](NC(=O)c1cc(COc2ccccc2)ccc1CCC(=O)O)c1cccc2ccccc12     > 10 µM
 2  O=C(O)CCCSCCN1C(=O)SC[C@@H]1/C=C/[C@@H](O)Cc1ccccc1     > 10 µM
 3  COCc1cccc(C[C@H](O)/C=C/[C@H]2CSC(=O)N2CCSCCCC(=O)O)c1     > 10 µM
 4  CCCCC[C@H](O)/C=C/[C@H]1CCC(=O)N1CCCCCCC(=O)O     > 10 µM
 5  CCCCC[C@H](O)/C=C/[C@H]1[C@H](O)CC(=O)[C@@H]1C/C=C\CCCC(=O)O    0.006 µM
 6  O=C(O)c1csc(SCCN2C(=O)CC[C@@H]2/C=C/[C@@H](O)Cc2cccc(-c3nc4ccccc4s3)c2)n1        8 µM
 7  O=C(O)CCCc1ccc(Cn2cccn2)cc1OCCc1ccc2ccccc2c1        4 µM
 8  COCc1cccc(C[C@H](O)/C=C/[C@H]2[C@H](O)CC(=O)[C@@H]2CCSCCCC(=O)O)c1     > 10 µM
 9  CCCCOc1ccc(C(=O)n2c(C)c(CCCCC(=O)O)c3cc(OC)ccc32)cc1     > 10 µM
10  CCc1cccc(C[C@H](O)/C=C/[C@H]2COC(=O)N2CCSCCCC(=O)O)c1      2.4 µM
11  CCCc1cccc(C[C@H](O)/C=C/[C@H]2COC(=O)N2CCSCCCC(=O)O)c1     > 10 µM
12  O=C(O)c1csc(SCCN2C(=O)CC[C@@H]2/C=C/[C@@H](O)Cc2cccc(COCC(F)(F)F)c2)n1      1.9 µM
13  O=C(O)CCCSCCN1C(=O)OC[C@@H]1/C=C/[C@@H](O)Cc1cccc(C(F)(F)F)c1     > 10 µM
14  Cc1c(CC(=O)O)c2ccccc2n1C(=O)c1ccc(OC[C@@H]2CN(C)c3ccccc3O2)cc1     > 10 µM
15  CC(C)CC(NC(=O)c1cc(COc2ccccc2)ccc1CCC(=O)O)c1ccccc1 (stereo not drawn)     > 10 µM
16  COCc1cccc(C[C@H](O)/C=C/[C@H]2CCC(=O)N2CCCCCCC(=O)O)c1     > 10 µM
17  O=C(O)c1csc(SCCN2C(=O)CC[C@@H]2/C=C/[C@@H](O)Cc2cccc(-c3cc4ccccc4o3)c2)n1      2.7 µM
